- Read-out: Human Leukocyte Antigen - DR isotype (HLADR), HLA-DRA (gene 3122)
- assay.remarks: BSK_BE3C_HLADR: BioMAP Diversity Plus: BE3C Assay for Human Leukocyte Antigen - DR isotype (HLADR) Biomarker Activity (AID 2283032)
- condition: primary human bronchial epithelial cells; actives raise or lower the signal
- Protocol: BSK_BE3C is a cell-based, multiplexed-readout assay that uses bronchial epithelial cell, a human lung primary cell, with measurements taken at 24 hours after chemical dosing in a 96-well plate.BSK_BE3C_HLADR is an assay component measured in the BSK_BE3C assay. It measures HLA-DR antibody related to regulation of gene expression using ELISA technology.Data from the assay component BSK_BE3C_HLADR was analyzed into 1 assay endpoint. […]
Active and inactive are the calls of the source. The calls were made as follows: active = hit-call score of the fitted dose curve at least 0.9, where 1 is the maximum; inactive = score below 0.9.
The reply should name one outcome from active, inactive

Reference set (3 entries):
CC(C)[C@H](C(=O)O[C@H](C#N)c1cccc(Oc2ccccc2)c1)c1ccc(Cl)cc1 :: inactive
CCc1cnc(C2=NC(C)(C(C)C)C(=O)N2)c(C(=O)O)c1 (centres undefined) :: inactive
CCC(=O)Nc1ccc(Cl)c(Cl)c1 :: inactive

Req: How was CCCOc1nn(C(=O)NS(=O)(=O)c2ccccc2C(=O)OC)c(=O)n1C classified in this test?
Resp: inactive

Req: How was CCCCOC(=O)[C@@H](C)Oc1ccc(Oc2ccc(C#N)cc2F)cc1 classified in this test?
Resp: inactive

Req: How was O=c1ccc(=O)[nH][nH]1 classified in this test?
Resp: inactive

Req: How was CNC(=O)ON=C(C)SC classified in this test?
Resp: inactive

Req: How was CN(C)NC(=O)CCC(=O)O classified in this test?
Resp: inactive

Req: How was CSc1nnc(C(C)(C)C)c(=O)n1N classified in this test?
Resp: inactive

Req: How was CCCCN(CC)c1c([N+](=O)[O-])cc(C(F)(F)F)cc1[N+](=O)[O-] classified in this test?
Resp: inactive

Req: How was CC1=NNC(=O)N(/N=C/c2cccnc2)C1 classified in this test?
Resp: inactive
